Biological target: T1, human CXCR2 (human, UniProt P25025 1-360)
T1 construct: also called CXC chemokine receptor 2; hCXCR2
T1 sequence: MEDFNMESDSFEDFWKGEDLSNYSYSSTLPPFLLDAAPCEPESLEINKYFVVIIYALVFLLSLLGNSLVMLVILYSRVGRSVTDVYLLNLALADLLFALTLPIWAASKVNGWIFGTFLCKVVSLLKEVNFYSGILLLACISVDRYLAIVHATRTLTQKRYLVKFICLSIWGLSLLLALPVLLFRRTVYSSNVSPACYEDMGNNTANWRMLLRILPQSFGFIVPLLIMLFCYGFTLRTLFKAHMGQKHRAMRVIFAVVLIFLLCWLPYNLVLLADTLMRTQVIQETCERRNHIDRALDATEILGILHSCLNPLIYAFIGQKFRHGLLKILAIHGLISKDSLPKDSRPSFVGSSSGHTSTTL
Assay: flow cytometry, CXCR2-transfected Expi293F cells
What Max binding (MFI Percent of 4A8 WT) was measured for each of the following?
Report the value in % with no unit label.

// Max binding (MFI Percent of 4A8 WT) value for BKO-4A8 combinatorial variant 102c (antibody, human IgG4 S228P, lambda, V domains shown, IgG4 S228P, lambda) VH: EVQLLESGGGLVQPGGSLRLSCAASGFTFSSSTQSWVRQPPGKGLEWVSAISGRGRSTYYADSVKGRFTISRDNSKNTLYLQMNSLRAEDTAVYYCAIQEGYWGQGILVTVSS VL: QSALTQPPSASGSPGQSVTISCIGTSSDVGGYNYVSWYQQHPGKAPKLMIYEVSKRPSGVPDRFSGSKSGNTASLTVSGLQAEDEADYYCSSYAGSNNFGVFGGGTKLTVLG : 53

// Max binding (MFI Percent of 4A8 WT) value for BKO-4A8-105c (antibody, human IgG4 S228P, lambda, V domains shown, IgG4 S228P, lambda) VH: EVQLLESGGGLVQPGGSLRLSCAASGFTFSSSTQSWVRQPPGKGLEWVSAISGSGGSTYYADSVKGRFTISRDNSKNTLYLQMNSLRAEDTAVYYCAIQAGYWGQGILVTVSS VL: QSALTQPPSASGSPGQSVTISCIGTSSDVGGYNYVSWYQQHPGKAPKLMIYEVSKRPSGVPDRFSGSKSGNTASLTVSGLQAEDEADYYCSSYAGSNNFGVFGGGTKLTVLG : 52

// Max binding (MFI Percent of 4A8 WT) value for BKO-4A8-104c (antibody, human IgG4 S228P, lambda, V domains shown, IgG4 S228P, lambda) VH: EVQLLESGGGLVQPGGSLRLSCAASGFTFSSSTQSWVRQPPGKGLEWVSAISGSGGSTYYADSVKGRFTISRDNSKNTLYLQMNSLRAEDTAVYYCAIQKGYWGQGILVTVSS VL: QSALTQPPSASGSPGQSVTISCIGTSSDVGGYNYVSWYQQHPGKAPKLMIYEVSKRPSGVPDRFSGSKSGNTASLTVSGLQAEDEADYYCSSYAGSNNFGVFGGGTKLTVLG : 54

From: patent US20240301076A1
